- Assay: Tmax in C57BL/6 mouse at 2 mg/kg, po
- Type: ADME, organism-based
- Design: dose 2 mg/kg, route oral
- Condition: in vivo
Property: Tmax

For COc1cc(F)c(C(C)C)cc1-c1ccc(C(F)(F)F)cc1CN1C(=O)O[C@H](c2cc(C(F)(F)F)cc(C(F)(F)F)c2)[C@@H]1C [ANACETRAPIB] , what is its reported Tmax? 1 h

----------
- Assay: Cmax in C57BL/6 mouse at 2 mg/kg, po
- Assay type: ADME, organism-based
- Design: dose 2 mg/kg, route oral
- Condition: in vivo
Property: Cmax (nM)
Give a bare numeral; the unit nM is implied.

For COc1cc(F)c(C(C)C)cc1-c1ccc(C(F)(F)F)cc1CN1C(=O)O[C@H](c2cc(C(F)(F)F)cc(C(F)(F)F)c2)[C@@H]1C , what is its reported Cmax? 280
